assay: Pharmacokinetics (PK) evaluation in mice; type: in vivo; conditions: mouse, liver/plasma; ICR mice, po 10 mg/kg, 5 hour; read-out: Liver/Plasma ratio
valueType: Kp at 5 h
No unit in the answer, only the number.

Query: Given "CCOC(=O)C1=C(CN2CCN3C(=O)N(C45CCC(CC(=O)O)(C4)C5)C[C@@H]3C2)NC(c2nccs2)=N[C@H]1c1cccc(F)c1C" , state its recorded Kp at 5 h.
Reply: 44

Query: Likewise for "CCOC(=O)C1=C(CN2CCN3C(=O)N(C45CC(CC(=O)O)(C4)C5)C[C@@H]3C2)NC(c2nccs2)=N[C@H]1c1cccc(F)c1C" ?
Reply: 297
